Sourced from patent US10913765B2

Settings: human, 5 min, 25 μM, pH 7.4
Could you label it y if measured Activation Rate (rate of releasing monophosphate product dFdCMP) is 10 pmol/min/mg HLM or higher, and n otherwise?

Task item: Reported Activation Rate (rate of releasing monophosphate product dFdCMP) reaches at least 10 pmol/min/mg HLM for Nc1ccn([C@@H]2O[C@H](COP3(=O)OCC[C@H](c4ccc(Cl)c(F)c4)O3)[C@@H](O)C2(F)F)c(=O)n1 (stereo partly drawn) [PA4009] ?
Reply: y

Task item: Reported Activation Rate (rate of releasing monophosphate product dFdCMP) reaches at least 10 pmol/min/mg HLM for Nc1ccn([C@@H]2O[C@H](COP3(=O)OCC[C@H](c4cccc(Cl)c4Cl)O3)[C@@H](O)C2(F)F)c(=O)n1 (stereo partly drawn) [PA4018] ?
Reply: n

Task item: Reported Activation Rate (rate of releasing monophosphate product dFdCMP) reaches at least 10 pmol/min/mg HLM for Nc1ccn([C@@H]2O[C@H](COP3(=O)OCC[C@H](c4cccc(Cl)c4F)O3)[C@@H](O)C2(F)F)c(=O)n1 (stereo partly drawn) [PA4010] ?
Reply: n

Task item: Reported Activation Rate (rate of releasing monophosphate product dFdCMP) reaches at least 10 pmol/min/mg HLM for Nc1ccn([C@@H]2O[C@H](COP3(=O)OCC[C@H](c4cc(Cl)ccc4F)O3)[C@@H](O)C2(F)F)c(=O)n1 (stereo partly drawn) [PA4004] ?
Reply: y

Task item: Reported Activation Rate (rate of releasing monophosphate product dFdCMP) reaches at least 10 pmol/min/mg HLM for Nc1ccn([C@@H]2O[C@H](COP3(=O)OCC[C@H](c4cccc(F)c4F)O3)[C@@H](O)C2(F)F)c(=O)n1 (stereo partly drawn) [PA4014] ?
Reply: n

---

The following compounds are listed with their measured Activation Rate (rate of releasing monophosphate product dFdCMP) values.
Conditions: human, 5 min, 25 μM, pH 7.4
Quick note: give the figure in pmol/min/mg HLM, leave out the unit.

Task item: Output measured Activation Rate (rate of releasing monophosphate product dFdCMP) for this item: Nc1ccn([C@@H]2O[C@H](COP3(=O)OCC[C@H](c4cc(Cl)ccc4Cl)O3)[C@@H](O)C2(F)F)c(=O)n1 (stereo partly shown)
Reply: 38.95

Task item: Output measured Activation Rate (rate of releasing monophosphate product dFdCMP) for this item: Nc1ccn([C@@H]2O[C@H](COP3(=O)OCC[C@H](c4cc(Cl)cc(Cl)c4)O3)[C@@H](O)C2(F)F)c(=O)n1 (stereo partly shown)
Reply: 6.92

Task item: Output measured Activation Rate (rate of releasing monophosphate product dFdCMP) for this item: Nc1ccn([C@@H]2O[C@H](COP3(=O)OCC[C@H](c4cc(F)ccc4Cl)O3)[C@@H](O)C2(F)F)c(=O)n1 (stereo partly shown)
Reply: 35.28

Task item: Output measured Activation Rate (rate of releasing monophosphate product dFdCMP) for this item: Nc1ccn([C@@H]2O[C@H](COP3(=O)OCC[C@H](c4ccc(F)c(F)c4)O3)[C@@H](O)C2(F)F)c(=O)n1 (stereo partly shown)
Reply: 4.32

Task item: Output measured Activation Rate (rate of releasing monophosphate product dFdCMP) for this item: Nc1ccn([C@@H]2O[C@H](COP3(=O)OCC[C@H](c4cc(F)ccc4F)O3)[C@@H](O)C2(F)F)c(=O)n1 (stereo partly shown)
Reply: 7.23

Task item: Output measured Activation Rate (rate of releasing monophosphate product dFdCMP) for this item: Nc1ccn([C@@H]2O[C@H](COP3(=O)OCC[C@H](c4ccc(Cl)c(Cl)c4)O3)[C@@H](O)C2(F)F)c(=O)n1 (stereo partly shown)
Reply: 5.25

Task item: Output measured Activation Rate (rate of releasing monophosphate product dFdCMP) for this item: Nc1ccn([C@@H]2O[C@H](COP3(=O)OCC[C@H](c4ccc(F)c(Cl)c4)O3)[C@@H](O)C2(F)F)c(=O)n1 (stereo partly shown)
Reply: 5.45
